Tested on: SARS-CoV-2
Measurement protocol: Antiviral activity against SARS-CoV-2
Type: functional, organism-based
Condition: Severe acute respiratory syndrome coronavirus 2
Quantity: EC50 (nM)
Please state the figure in nM; there is no need to write the unit.

Reported EC50, compound O=C(NC1CCCC1)C(=O)[C@H](C[C@@H]1CCNC1=O)NC(=O)[C@@H]1[C@H]2CCC[C@H]2CN1C(=O)[C@@H](NC(=O)C(F)(F)F)C1CCCCC1 : ____
95

* * *

Here's what we have: pIC50 numbers for Replicase polyprotein 1ab (Severe acute respiratory syndrome coronavirus 2).
Scale: pIC50 equals -log10([C]), with [C] in mol/L.

Some solved entries appear below for comparison.
                                 smiles_str  observed_result
0  O=C(Nc1ccc(-n2[se]c3ccccc3c2=O)cc1)C1CC1             6.31
1  NS(=O)(=O)c1ccc(C(=O)N2CCC(n3[se]c4ccccc4c3=O)CC2)cc1             6.26
2  CN(C)S(=O)(=O)Nc1ccc(-n2[se]c3ccccc3c2=O)cc1             6.63

Request: pIC50, test system Replicase polyprotein 1ab (Severe acute respiratory syndrome coronavirus 2), entry O=c1c2ccccc2[se]n1C1CCN(S(=O)(=O)c2cccnc2)CC1
6.57

* * *

Target desc: Replicase polyprotein 1ab (Severe acute respiratory syndrome coronavirus 2) (UniProt P0DTD1)
Measurement protocol: Inhibition of SARS-CoV-2 MPro using protease substrate at 5 uM preincubated with enzyme for 10 mins followed by substrate addition and measured after 5 mins in presence of 4 mM DTT by FRET based assay
Condition: time 15.0 min
Active and inactive are the calls of the source. The calls are words filed in the database; no cut-off is given here.
Quantity: inhibition

Some solved entries appear below for comparison.
                                 smiles_str  observed_result
0               O=c1c2ccccc2[se]n1Cc1ccncc1         inactive
1  O=c1c2ccccc2[se]n1-c1ccc(NS(=O)(=O)C2CC2)cc1         inactive
2          Nc1ccc2c(=O)n(-c3ccccc3)[se]c2c1         inactive
3               O=c1c2ccccc2[se]n1-c1ccccc1         inactive

// moving on: another record for inhibition
Reported inhibition, molecule CN(C)S(=O)(=O)Nc1ccc(-n2[se]c3ccccc3c2=O)cc1 : ____
inactive

* * *

Item-by-item account of inhibition
Target desc: Replicase polyprotein 1ab (Severe acute respiratory syndrome coronavirus 2) (UniProt P0DTD1)
Measurement protocol: Inhibition of SARS-CoV-2 MPro using protease substrate at 1 uM preincubated with enzyme for 10 mins followed by substrate addition and measured after 5 mins by FRET based assay
Condition: time 15.0 min

Some solved entries appear below for comparison.
In [3]: df
Out[3]:
                                   compound  observed_result
0               O=c1c2ccccc2[se]n1Cc1cccnc1            80.6%
1                O=c1c2ccccc2[se]n1C1CCNCC1            57.5%
2  O=c1c2ccccc2[se]n1C1CCN(S(=O)(=O)c2cccnc2)CC1             101%
3  CC(C)(C)OC(=O)N1CCC(n2[se]c3ccccc3c2=O)CC1            85.2%

// moving on: another record for inhibition
Reported inhibition, compound O=c1c2ccccc2[se]n1-c1ccccc1 [EBSELEN] : ____
88.3%
